system: NCI-H23 lung; assay: NCI tumour cell line growth inhibition, 48 h
Value kind: TGI (µM)
One number for each entry, in µM.

Examples from the recorded data:
Compound: Nc1cc(CO)cc(Nc2nc3ccc(Cl)cc3c3[nH]c4ccccc4c23)c1
Value kind: TGI
Result units: µM
Observed: 40
--
Compound: CC1=C(O)C(=O)[C@@H]2O[C@@H]2C1=O
Value kind: TGI
Result units: µM
Observed: 35.8
--
Compound: COc1cccc2c(N)c3cccc(C(=O)NCCN(C)C)c3nc12
Value kind: TGI
Result units: µM
Observed: 1.02
--
Compound: O=[N+]([O-])/C=C\c1ccc(Cl)c(Cl)c1
Value kind: TGI
Result units: µM
Observed: 3.31

Continue with the next compound.
So for CC(O[Si](c1ccccc1)(c1ccccc1)C(C)(C)C)[C@H](NC(=O)OC(C)(C)C)C(=O)O[Si](c1ccccc1)(c1ccccc1)C(C)(C)C (stereo not given in full) , the logged TGI turned out to be 26.1

###

system: OVCAR-5 ovarian; test: NCI tumour cell line growth inhibition, 48 h
Value kind: TGI (µM)
Answers are plain numbers, in µM.

Examples from the recorded data:
Molecule: COCOC1/C=C/CCCC#C[C@H](C)C(=O)CC1 (some centres undefined)
TGI / µM: 20.1
--
Molecule: CC(CN1c2ccccc2Sc2ccccc21)N(C)C (centres undefined)
TGI / µM: 32.8
--
Molecule: CC1=C(O)C(=O)[C@@H]2O[C@@H]2C1=O
TGI / µM: 33.9
--
Molecule: CCCc1cc(=O)c2c(C)c3[nH]c4ccc(Cl)cc4c3c(C)c2[nH]1
TGI / µM: 5.58

Continue with the next molecule.
So for CC1=C(CCCNS(C)(=O)=O)C2=C(C)C3(CC3)[C@@](C)(O)C(=O)C2=C1 , the logged TGI turned out to be 7.62

###

tested on: ACHN renal; experiment: NCI tumour cell line growth inhibition, 48 h; in the data active = GI50 below about 0.43 µM; inactive = the rest
Can you answer with just one of these options? YES (active), NO (inactive)

Molecule: CCCCC(=O)OCC1OC(n2cnc3c(=S)nc[nH]c32)C(OC(=O)CCCC)C1OC(=O)CCCC (centres undefined)
Assayed target: ACHN renal
Label class: NO
//
Molecule: CC[CH2][Pb]([CH2]CC)([CH2]CC)[O]C(=O)C(F)(F)F
Assayed target: ACHN renal
Label class: YES

Input: Name the outcome recorded for CCCCC/C(C=C(C#N)C#N)=C/c1ccccc1 in the assay.
Output: NO

Input: Name the outcome recorded for COC(=O)CCCCN=Cc1c(O)c(O)c(C(C)C)c2cc(C)c(-c3c(C)cc4c(C(C)C)c(O)c(O)c(C=NCCCCC(=O)OC)c4c3O)c(O)c12 in the assay.
Output: NO

###

tested on: OVCAR-3 ovarian; experiment: NCI tumour cell line growth inhibition, 48 h
Value kind: TGI

Compound: COc1ccc(OC)c(NC(=O)C(=O)C(C(C)=O)c2nc3ccc(Cl)cc3[nH]c2=O)c1 (stereo not given)
Observed: > 50 µM
--
Compound: COC(=O)C[C@H]1CCC2(OCCO2)[C@]1(C)C(=O)OC
Observed: > 100 µM
--
Compound: COc1cc2c3c(n(C)c(=O)c2cc1OC)-c1cc2c(cc1/C3=C\CCCN1C(=O)c3ccccc3C1=O)OCO2
Observed: > 40 µM
--
Compound: NC(=O)N/N=C(\Cc1nc2ccc(Cl)cc2[nH]c1=O)C(=O)Nc1ccc(Cl)cc1Cl
Observed: > 100 µM

Continue with the next compound.
Tested on OVCAR-3 ovarian: CN1C(=O)C2C(=O)N(Cc3ccccc3)CC(=O)N2c2cccnc21 (stereo not given) . Observed TGI: > 100 µM

Sourced from PubChem BioAssay (NCI)
